Exercise: for every item that follows, state its recorded Bliss excess.
- Test system: T-T (Esophageal Squamous Cell Carcinoma)
- EXPERIMENT_DESCRIPTION: Bliss excess, mean over the matrix (fraction); higher = more synergy;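 further: after 72 h of two-drug dosing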
Answers are plain numbers.

Here is how some molecules turned out for Bliss excess.
* CC1(C)CCC(CN2CCN(c3ccc(C(=O)NS(=O)(=O)c4ccc(NCC5CCOCC5)c([N+](=O)[O-])c4)c(Oc4cnc5[nH]ccc5c4)c3)CC2)=C(c2ccc(Cl)cc2)C1 [Venetoclax] + CN(C)CCCOc1ccc(-c2ccc3ncc4c(c3c2)n(C2CCOCC2)c(=O)n4C)cn1 [AZD0156] (first compound max 1 µM, 7x7, partner max 1 µM) | 0.0197
* CC(=O)c1c(C)c2cnc(Nc3ccc(N4CCNCC4)cn3)nc2n(C2CCCC2)c1=O [Palbociclib] + Cc1c2c(nn1C)CSCc1cc(n(C)n1)CSc1cc(c3ccccc3c1)OCCCc1c(C(=O)O)n(C)c3c-2c(Cl)ccc13 [AZD5991] (first compound max 10 µM, 7x7, partner max 1 µM) | 0.0028
* COc1cccc2c1C(=O)c1c(O)c3c(c(O)c1C2=O)C[C@@](O)(C(=O)CO)C[C@@H]3O[C@H]1C[C@H](N)[C@H](O)[C@H](C)O1 [Doxorubicin] + Cc1cc2ncnn2cc1Nc1ncc2c(n1)n(C1CCOCC1)c(=O)n2C [AZD7648] (first compound max 1 µM, 7x7, partner max 10 µM) | 0.0318
* COc1cc2c(cc1OCCCCCOc1cc3c(cc1OC)C(=O)N1C=C(C)C[C@H]1C=N3)N=C[C@@H]1CC(C)=CN1C2=O [SG3199] + O=C(c1cc(Cc2n[nH]c(=O)c3ccccc23)ccc1F)N1CCN(C(=O)C2CC2)CC1 [Olaparib] (first compound max 0.001 µM, 7x7, partner max 10 µM) | -0.0418
* COc1cccc(OCCCN)c1-c1cc(Nc2cnc(C#N)cn2)n[nH]1 [Prexasertib] + C=CCn1c(=O)c2cnc(Nc3ccc(N4CCN(C)CC4)cc3)nc2n1-c1cccc(C(C)(C)O)n1 [AZD1775] (first compound max 1 µM, partner max 1 µM) | 0.208
* C=CCn1c(=O)c2cnc(Nc3ccc(N4CCN(C)CC4)cc3)nc2n1-c1cccc(C(C)(C)O)n1 [AZD1775] + Nc1ccn([C@@H]2O[C@H](CO)[C@@H](O)C2(F)F)c(=O)n1 [Gemcitabine] (first compound max 1 µM, partner max 0.3 µM) | 0.0692

## Input Report Bliss excess for CS(=O)(=O)CCNCc1ccc(-c2ccc3ncnc(Nc4ccc(OCc5cccc(F)c5)c(Cl)c4)c3c2)o1 [Lapatinib] + C[C@@H](Oc1cc(-c2cnn(C3CCNCC3)c2)cnc1N)c1c(Cl)ccc(F)c1Cl [Crizotinib] (first compound max 10 µM, 7x7, partner max 10 µM)
## Output -0.0172

* * *

- Test system: NCI-H929 (Plasma Cell Myeloma)
- EXPERIMENT_DESCRIPTION: Bliss excess, mean over the matrix (fraction); higher = more synergy
READOUT_TYPE: Bliss excess
Numbers only.

• COc1cc2ncnc(Nc3ccc(F)c(Cl)c3)c2cc1OCCCN1CCOCC1 [Gefitinib] + CC(C)n1c(=O)n(C)c2cnc3cc(F)c(-c4ccc(OCCCN5CCCCC5)nc4)cc3c21 [AZD1390] (first compound max 10 µM, 7x7, partner max 0.3 µM) = -0.0092
• Cc1c2c(nn1C)CSCc1cc(n(C)n1)CSc1cc(c3ccccc3c1)OCCCc1c(C(=O)O)n(C)c3c-2c(Cl)ccc13 [AZD5991] + C[C@@H]1COCCN1C2=NC(=NC(=C2)C3(CC3)[S@](=N)(=O)C)C4=C5C=CNC5=NC=C4 [AZD6738] (first compound max 1 µM, 7x7, partner max 10 µM) = -0.0296
• C[C@@H]1COCCN1c1cc(C2([S@](C)(=N)=O)CC2)nc(-c2ccnc3[nH]ccc23)n1 [AZD6738] + O=C(c1cc(Cc2n[nH]c(=O)c3ccccc23)ccc1F)N1CCN(C(=O)C2CC2)CC1 [Olaparib] (first compound max 10 µM, 7x7, partner max 10 µM) = -0.0942

Please find the next compound below.
## Input Respond only with Bliss excess recorded for COc1nnc2ccc(N3CCC(c4ccc(OCCN5CCN(C)C(=O)[C@H]5C)cc4)CC3)nn12 [AZD5153] + C=CCn1c(=O)c2cnc(Nc3ccc(N4CCN(C)CC4)cc3)nc2n1-c1cccc(C(C)(C)O)n1 [AZD1775] (first compound max 1 µM, partner max 1 µM)
## Output -0.0551
